Provenance of the data: patent US20230227466A1

Molecular target: KRas G12D mutant (Homo sapiens, UniProt P01116, G12D)
Construct: made in house
Assay: Ras GTP binding domain inhibition assay (labeled-GTP competition, cell-free)
Conditions: without SOS, read-out: KRas G12D mutant: % inh.
Measured inhibition at 20 µM, listed per entry for reference.

- molecule: "Cc1sc2c(O)nc(-c3ccccn3)nc2c1-c1ccccn1 [Compound 26]"
  inhibition at 20 µM: "76 to 100%"
- molecule: "Cc1c(-c2ccn(C(C)C)n2)sc2nc(-c3nccn3C)nc(NC3CCOC3)c12 (racemic) [Compound 37]"
  inhibition at 20 µM: "76 to 100%"
- molecule: "Cc1c(-c2ccn(C(C)C)n2)sc2nc(-c3nccn3C)nc(N3CCC(COC(C)C)C3)c12 (racemic) [Compound 62]"
  inhibition at 20 µM: "26 to 50%"
- molecule: "COc1ccc2cnc(-c3nc(O)c4scc(-c5ccccn5)c4n3)n2c1 [Compound 86]"
  inhibition at 20 µM: "51 to 75%"

Input: Quick check: inhibition at 20 µM of COC1CCCN(c2nc(-c3nccn3C)nc3sc(-c4ccn(C(C)C)n4)c(-c4ccccc4)c23)C1 (racemic) [Compound 77] ?
Output: 51 to 75%

Input: Using the record for CO[C@H]1CC[C@@H](Nc2nc(C(=O)N3CCOCC3)nc3sccc23)C1 (racemic) [Compound 12] , report its inhibition at 20 µM.
Output: 1 to 25%

Input: Tell me the measured inhibition at 20 µM of Cn1ccc(-c2nc(O)c3scc(-c4ccccn4)c3n2)n1 [Compound 90] , please.
Output: 26 to 50%

Input: Return reported inhibition at 20 µM; argument: CO[C@H]1CC[C@H](Nc2nc(-c3nccn3C)nc3sc(-c4ccn(C(C)C)n4)c(C)c23)CC1 [Compound 54]
Output: 51 to 75%

====

Overview of recorded inhibition at 20 µM for various molecules
Target: KRas wild type (Homo sapiens)
Assay: Ras GTP binding domain inhibition assay (labeled-GTP competition, cell-free)
Set-up: made in house
Details: with SOS, read-out: KRas wild type + SOS: % inh.

Completed entries (count: 5):
- molecule: "CO[C@H]1C[C@H](Nc2nc(-c3nccn3C)nc3sc(-c4ccn(C(C)C)n4)c(C)c23)C[C@H]1OC [Compound 43]"
  assayed_target: "KRas wild type (Homo sapiens)"
  recorded_metric: "inhibition at 20 µM"
  result: "76 to 100%"
- molecule: "CO[C@@H]1CC[C@@H](Nc2nc(-c3nccn3C)nc3sc(-c4ccn(C(C)C)n4)c(C)c23)C1 (racemic) [Compound 33]"
  assayed_target: "KRas wild type (Homo sapiens)"
  recorded_metric: "inhibition at 20 µM"
  result: "76 to 100%"
- molecule: "COCC1CCN(c2nc(-c3nccn3C)nc3sc(-c4ccn(C(C)C)n4)c(C)c23)C1 (racemic) [Compound 38]"
  assayed_target: "KRas wild type (Homo sapiens)"
  recorded_metric: "inhibition at 20 µM"
  result: "76 to 100%"
- molecule: "CO[C@H]1CC[C@@H](Nc2nc(-c3nccn3C)nc3sc(-c4ccn(C(C)C)n4)c(C)c23)CC1 [Compound 55]"
  assayed_target: "KRas wild type (Homo sapiens)"
  recorded_metric: "inhibition at 20 µM"
  result: "1 to 25%"
- molecule: "CO[C@@H]1CC[C@H](Nc2nc(-c3nccn3C)nc3sc(-c4ccn(C(C)C)n4)c(C)c23)C1 [Compound 31]"
  assayed_target: "KRas wild type (Homo sapiens)"
  recorded_metric: "inhibition at 20 µM"
  result: "76 to 100%"

Input: Look up inhibition at 20 µM with KRas wild type (Homo sapiens) for this molecule: NC(=O)c1nc(O)c2scc(-c3ccccn3)c2n1 [Compound 18]
Output: 1 to 25%

Input: Report inhibition at 20 µM for CO[C@@H]1CCCN(c2nc(-c3nccn3C)nc3sc(-c4ccn(C(C)C)n4)c(C)c23)C1 [Compound 50] tested on KRas wild type (Homo sapiens).
Output: 51 to 75%

Input: Quick check: inhibition at 20 µM on KRas wild type (Homo sapiens), item COc1cc(Nc2nc(-c3nccn3C)nc3sc(-c4ccn(C(C)C)n4)c(C)c23)ncn1 [Compound 66] ?
Output: 51 to 75%

Input: Any idea what inhibition at 20 µM came out for COc1ccn2c(-c3nc(O)c4scc(-c5ccccn5)c4n3)ncc2c1 [Compound 85] on KRas wild type (Homo sapiens)?
Output: 1 to 25%

Input: Return inhibition at 20 µM measured with KRas wild type (Homo sapiens) given this molecule: CO[C@H]1CC[C@@H](Nc2nc(-c3nccn3C)nc3sc(-c4ccn(C(C)C)n4)c(C)c23)C1 [Compound 32]
Output: 76 to 100%

Input: API: value(readout=inhibition at 20 µM, system=KRas wild type (Homo sapiens)) for record COCCn1c(-c2nc(O)c3scc(-c4ccccn4)c3n2)nc2ccccc21 [Compound 87]
Output: 1 to 25%

Input: Request body: readout inhibition at 20 µM, system KRas wild type (Homo sapiens), query Cc1sc2c(O)nc(-c3ccccn3)nc2c1-c1ccccn1 [Compound 26] . Return the value.
Output: 51 to 75%

Input: Write down the reported inhibition at 20 µM of CO[C@H]1CC[C@@H](Nc2nc(C(=O)N3CCOCC3)nc3sccc23)C1 (racemic) [Compound 12] , test system: KRas wild type (Homo sapiens).
Output: 1 to 25%

====

Target: KRas Q61H mutant (Homo sapiens, UniProt P01116, Q61H)
Construct: made in house
Assay: Ras GTP binding domain inhibition assay (labeled-GTP competition, cell-free)
Settings: at 20 μM, with SOS; read-out: KRas Q61H mutant + SOS: % inh.
Reported values of inhibition at 20 µM for individual entries

Examples from the recorded data:
- compound: "COCCn1ccnc1-c1nc(N[C@H]2C[C@@H](OC)C2)c2ccsc2n1"
  recorded_metric: "inhibition at 20 µM"
  result: "76 to 100%"
- compound: "CO[C@@H]1CC[C@H](Nc2nc(-c3nccn3C)nc3sc(-c4ccn(C(C)C)n4)c(-c4ccccc4)c23)C1"
  recorded_metric: "inhibition at 20 µM"
  result: "76 to 100%"
- compound: "CO[C@H]1CC(Nc2nc(-c3nccn3C)nc3sc(-c4ccn(C(C)C)n4)c(C)c23)C[C@@H]1OC (racemic)"
  recorded_metric: "inhibition at 20 µM"
  result: "76 to 100%"
- compound: "Oc1nc(-c2cccnc2)nc2c(-c3ccccn3)csc12"
  recorded_metric: "inhibition at 20 µM"
  result: "1 to 25%"
- compound: "CC(C)OCCn1ccnc1-c1nc(O)c2scc(-c3ccccn3)c2n1"
  recorded_metric: "inhibition at 20 µM"
  result: "51 to 75%"
- compound: "CO[C@H]1C[C@@H](Nc2nc(-c3nccn3C)nc3sc(-c4cn(C)cn4)c(-c4ccccc4)c23)C1"
  recorded_metric: "inhibition at 20 µM"
  result: "76 to 100%"

Input: Form field: reported inhibition at 20 µM of CO[C@H]1CC[C@@H](Nc2nc(-c3nccn3C)nc3sc(-c4cn(C)cn4)c(-c4ccccc4)c23)C1 (racemic)
Output: 76 to 100%

Input: Looking for the measured inhibition at 20 µM of Oc1nc(-c2ccc3[nH]ncc3n2)nc2c(-c3ccccn3)csc12 , can you help?
Output: 1 to 25%

Input: Bench note: what inhibition at 20 µM did CO[C@H]1CCCN(c2nc(-c3nccn3C)nc3sc(-c4ccn(C(C)C)n4)c(C)c23)C1 show?
Output: 51 to 75%

Input: What value of inhibition at 20 µM has been recorded for this entry: COCC1CN(c2nc(-c3nccn3C)nc3sc(-c4ccn(C(C)C)n4)c(C)c23)CCO1 (racemic)
Output: 76 to 100%

Input: Data request, read-out inhibition at 20 µM, for COCC1CCN(c2nc(-c3nccn3C)nc3sc(-c4ccn(C(C)C)n4)c(C(F)(F)F)c23)C1 (racemic)
Output: 51 to 75%

Input: Could you tell me which inhibition at 20 µM is on file for Cc1c(-c2ccn(C(C)C)n2)sc2nc(-c3nccn3C)nc(NCCc3cn(C)cn3)c12 ?
Output: 51 to 75%

Input: Name the recorded inhibition at 20 µM for CO[C@@H]1CC[C@H]1CNc1nc(-c2nccn2C)nc2sc(-c3ccn(C(C)C)n3)c(C)c12 (racemic) .
Output: 76 to 100%

Input: Given the compound Oc1nc(-c2ccccn2)nc2c(-c3ncccc3F)csc12 , what is its reported inhibition at 20 µM?
Output: 76 to 100%

Input: Value lookup for inhibition at 20 µM; key = COCC1COCCN1c1nc(-c2nccn2C)nc2sc(-c3ccn(C(C)C)n3)c(C)c12 (racemic)
Output: 26 to 50%

Input: Value lookup for inhibition at 20 µM; key = Cn1ccnc1-c1nc(O)c2scc(-c3ncccc3F)c2n1
Output: 76 to 100%
